# System: S. aureus RN4220
# ASSAY_PROTOCOL: MIC, agar plate dilution method, S. aureus RN4220
# Type: cell-based, Staphylococcus aureus
# TEST_CONDITIONS: S. aureus RN4220, Sensitive bacterium
READOUT: minimal inhibitory concentration (MIC) (mg/L)
Kindly provide the numeric value in mg/L only, without the unit symbol.

The value of minimal inhibitory concentration (MIC) measured for the molecule CN[C@@H]1[C@@H](O[C@H]2O[C@H](CO)[C@@H](N)[C@@H](O)[C@H]2O)O[C@H]2C[C@@H](N)[C@@H](O[C@H]3[C@@H](O)[C@@H](O)[C@H](N)C[C@@H]3N)O[C@@H]2[C@@H]1O [Compound P4, 5,3″-diepiapramycin] turned out to be 2

The value of minimal inhibitory concentration (MIC) measured for the molecule CNCC(=O)N[C@@H]1C(CO)O[C@H](OC2O[C@H]3CC(N)[C@@H](O[C@@H]4C(N)C[C@@H](N)C(O)[C@H]4O)OC3C(O)C2NC)C(O)[C@H]1O (stereo partly drawn) [Compound V1-j, 5-epi-4″-N-sarcosylapramycin] turned out to be 2

The value of minimal inhibitory concentration (MIC) measured for the molecule CNC1C(OC2OC(CO)C(NC(=N)N)CC2O)OC2CC(N)C(OC3CC(O)C(N)CC3N)OC2C1O (stereo not shown) turned out to be 1

The value of minimal inhibitory concentration (MIC) measured for the molecule CNC1C(OC2OC(CO)C(N)CC2O)OC2CC(N)C(OC3C(N)CC(N)C(O)C3O)OC2C1O (stereo not shown) [Compound M9, 3″-deoxy-5-epiapramycin] turned out to be 1

The value of minimal inhibitory concentration (MIC) measured for the molecule CN[C@@H]1[C@@H](O[C@H]2O[C@H](CO)[C@@H](NC(=O)[C@H](N)CO)[C@H](O)[C@H]2O)O[C@H]2C[C@@H](N)[C@@H](O[C@H]3[C@H](O)[C@@H](O)[C@H](N)C[C@@H]3N)O[C@@H]2[C@@H]1O turned out to be 8

The value of minimal inhibitory concentration (MIC) measured for the molecule CNC1C(O[C@H]2OC(CO)[C@@H](NC)[C@H](O)C2O)O[C@H]2CC(N)[C@@H](O[C@@H]3C(N)C[C@@H](N)C(O)[C@H]3O)OC2C1O (stereo partly drawn) [Compound S1-f, 5-epi-4″-N-methylapramycin] turned out to be 2

The value of minimal inhibitory concentration (MIC) measured for the molecule CN[C@@H]1[C@@H](O[C@H]2O[C@H](CO)[C@@H](NC(=N)N)[C@H](O)[C@H]2O)O[C@H]2C[C@@H](N)[C@@H](O[C@H]3[C@@H](O)[C@@H](O)[C@H](N)C[C@@H]3N)O[C@@H]2[C@@H]1O [Compound S1-j, 4″-deamino-5-epi-4″-guanidinoapramycin] turned out to be 2

The value of minimal inhibitory concentration (MIC) measured for the molecule CN[C@@H]1[C@@H](O[C@H]2O[C@H](CO)[C@@H](NC)[C@H](O)[C@H]2O)O[C@H]2C[C@@H](N)[C@@H](O[C@H]3CC[C@H](N)C[C@@H]3N)O[C@@H]2[C@@H]1O turned out to be 2

The value of minimal inhibitory concentration (MIC) measured for the molecule CNC1C(OC2OC(CO)C(N)CC2O)OC2CC(N)C(OC3CCC(N)CC3N)OC2C1O (stereo not shown) turned out to be 2

The value of minimal inhibitory concentration (MIC) measured for the molecule CNC1C(OC2OC(CO)C(NC(=N)N)C(O)C2O)OC2CC(N)C(OC3C(N)CC(N)C(O)C3N)OC2C1O (stereo not shown) turned out to be 1
